- System name: tetrameric transthyretin (TTR) (Homo sapiens, UniProt P02766)
- Experiment description: In-solution kinetics analysis of TTR-Aβ interactions via OpenSPR
- Assay type: binding
- Measurement conditions: OpenSPR, Replicate #2
- Description: One of the most common applications of SPR is the analysis and quantification of the interactions between proteins. SPR experiments were performed using a Nicoya Lifesciences OpenSPR system equipped with a COOH chip. […] Immobilization was monitored via absorbance change in a standard solution of filtered buffer (PBS, pH 6.8, with 0.005% Tween 20) for 5 min at a flow rate of 50 μl/min. […]
Square brackets hold non-standard residues; d marks the D form. Ends that are not written are not given here.
Please provide measured pKd for the entries that follow.
Note on units: pKd is unitless, being -log10 of a concentration expressed in mol/L.

# input Give pKd for the following substance: dS Aβ (17–36): Aβ (17–36) with D-isomerized Ser (LVFFAEDVG[dS]NKGAIIGLMV)
# output 3.66

# input Give pKd for the following substance: dD Aβ (17–36): Aβ (17–36) with D-isomerized Asp (LVFFAE[dD]VGSNKGAIIGLMV)
# output 3.70

====

- System name: tetrameric transthyretin (TTR) (Homo sapiens, UniProt P02766)
- Experiment description: In-solution kinetics analysis of TTR-Aβ interactions via OpenSPR
- Format: binding
- Measurement conditions: OpenSPR, Replicate #3
Square brackets hold non-standard residues; d marks the D form. Ends that are not written are not given here.
Please provide measured pKd for the entries that follow.
Note on units: pKd is unitless, being -log10 of a concentration expressed in mol/L.

# input Give pKd for the following substance: dS Aβ (17–36): Aβ (17–36) with D-isomerized Ser (LVFFAEDVG[dS]NKGAIIGLMV)
# output 4.33

# input Give pKd for the following substance: dD Aβ (17–36): Aβ (17–36) with D-isomerized Asp (LVFFAE[dD]VGSNKGAIIGLMV)
# output 3.88
